These data points were gathered from patent US20210395392A1.

# target_or_system: T1, Recombinant soluble extracellular domain of human MerTK (human, UniProt Q12866 21-505)
# T1 construct: SPR analyte; also called hMerTK
# T1 sequence: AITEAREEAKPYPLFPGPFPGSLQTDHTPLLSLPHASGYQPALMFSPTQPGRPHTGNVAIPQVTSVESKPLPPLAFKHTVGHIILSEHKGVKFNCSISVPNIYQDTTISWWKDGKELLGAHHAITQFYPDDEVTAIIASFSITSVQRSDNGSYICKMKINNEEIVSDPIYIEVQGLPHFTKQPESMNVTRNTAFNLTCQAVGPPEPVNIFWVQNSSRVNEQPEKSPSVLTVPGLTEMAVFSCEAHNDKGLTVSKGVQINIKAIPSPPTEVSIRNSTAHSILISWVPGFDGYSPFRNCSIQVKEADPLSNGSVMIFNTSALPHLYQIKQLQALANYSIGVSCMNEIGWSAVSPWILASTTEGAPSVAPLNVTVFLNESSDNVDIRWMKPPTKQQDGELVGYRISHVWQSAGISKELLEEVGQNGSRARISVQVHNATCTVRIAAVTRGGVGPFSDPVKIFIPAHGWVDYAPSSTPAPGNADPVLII
# experimental_protocol: SPR, mAb captured, soluble MerTK ECD as analyte, 37 C
// values below are reported koff
Answer format: numeric, s⁻¹ implied, no suffix.

q: I'd like to know its koff. The binder in question is HuMAb 10K11 (antibody, human IgG1, kappa, V domains shown, Human anti-hMerTK mAb, Bin 1) VH: QLQLQESGPGLVKPSETLSLTCAVSGYSISSDYSWGWIRQPPGKGLEWIGSIYHSGNTYFNPSLKSRVTISVDTSKNQFSLKLSSVTAADTAVYYCARDKSYYFGPGSMDVWGQGTTVTVSS VL: AIQLTQSPSSLSASVGDRVTITCRASQGISSALAWYQQKPGKAPKLLIYDASSLESGVPSRFSGSGSGTDFTLTISSLQPEDFATYYCQQFKSYLTFGQGTRLEIKR
a: 0.00117

q: Quick one: Humanized MAb 2L105 (antibody, human IgG1, lambda, V domains shown, Humanized variant of moMAb 2D9, Bin 2) VH: QVTLKESGPVLVKPTETLTLTCTVSGISLSSFAISWIRQPPGKALEWLAVIWTGGGTDYNSALKSRLTISKDTSKSQVVLTMTNMDPVDTATYYCASHWYLDVWGQGTTVTVSS VL: QTVVTQEPSFSVSPGGTVTLTCRSSTGAVSTSNYANWVQQTPGQAPRGLIGGANSRAPGIPDRFSGSILGNKAALTITGAQADDESDYYCALWFSNHWVFGGGTKLTVLG
a: 0.00146

q: Then this binder: HuMAb 4K10 (antibody, human IgG1, kappa, V domains shown, Human anti-hMerTK mAb, Bin 3) VH: QVQLQQWGAGLLKPSETLSLTCAVYGGSFSGYYWSWLRQPPGKGLEWIGEISHSGSTNYNPSLKSRVTISVDTSKNQFSLKLSSVTAADTAVYYCARALSRYWYFDLWGRGTLVTVSS VL: EIVLTQSPATLSLSPGERATLSCRASQSASNYLAWYQQKPGQAPRLLIYDASNRATGIPARFSGSGSGTDFTLTISSLEPEDFAVYYCYQRSQWPISFGQGTRLEIKR
a: 0.00336
